Hello, the source for this data is paper PMC11098746, in case you need it.

I'd appreciate it if you could supply binding score values for the items below.
target: FGFR4 ectodomain (Homo sapiens, UniProt P22455); experiment: AVEXIS normalised luminescence
Answers are plain numbers.

binder	binding score
41 (protein, bait human Fc-tagged dimer) VYNVKTQKNEGIIIDKEGKENDNGNSDRNTPNNNNRLNRMTLNKEMYEKHNKMNNEEDNNKNINYDLSNLKDGMKKKHFGSNSAEDKTNKKSSINSVLEKYQHTKHEEKNLQNLNKNMMTHENDDSMKSIFISEESFESAKNVCQFIVMQNDYFKNFCNIASLVYDIEKLKKNNHKIYEEILSNSYENNNGAKFKLLKEINHAKVFKEMDNTNPKFSILFLYDKFCYGGIPLACSNLMKYDNVFDINEQSETTNKPDDNVNMEEMENYIINQAGMENGFEENVADLTQE	1.23

Now examine the next entry.
Request: I am curious: what binding score value has been reported for 87 (protein, bait human Fc-tagged dimer) LKKGNGDFIKKNGVFFQIDRDMNEPPYSVINVFYTESLLDDNLLNQLEKERKMGKYKTQNYFRKSLDNNKYFMEYSRKQKEQLEFLLE ?
Result: 1.61
